MEASUREMENT_TARGET: T1, human TMEM106B (human, UniProt Q9NUM4 2-274)
T1 construct: full-length, transiently expressed on HEK293 cells, or natively expressed on HeLa, U251 and A549 cells (the cell is named under assay); also the source of the Pepscan peptides; also called huTMEM106B; huTMEM
ASSAY_METHOD_TEXT: FACS U251
Here the recorded MFI is given for each entry.

BINDER | UNITS_LABEL | MFI
TM-26 (antibody, V domains shown) VH: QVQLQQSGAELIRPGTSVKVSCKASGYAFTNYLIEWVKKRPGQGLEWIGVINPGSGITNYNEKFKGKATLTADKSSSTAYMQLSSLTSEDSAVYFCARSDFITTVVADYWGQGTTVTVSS VL: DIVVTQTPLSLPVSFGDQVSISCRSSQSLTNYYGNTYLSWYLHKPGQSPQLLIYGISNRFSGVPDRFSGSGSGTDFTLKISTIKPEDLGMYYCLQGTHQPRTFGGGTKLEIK | MFI | 300
TM-7 (antibody, V domains shown) VH: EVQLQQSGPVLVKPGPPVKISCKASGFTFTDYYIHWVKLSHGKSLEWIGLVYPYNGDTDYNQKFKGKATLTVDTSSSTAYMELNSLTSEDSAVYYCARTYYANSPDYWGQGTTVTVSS VL: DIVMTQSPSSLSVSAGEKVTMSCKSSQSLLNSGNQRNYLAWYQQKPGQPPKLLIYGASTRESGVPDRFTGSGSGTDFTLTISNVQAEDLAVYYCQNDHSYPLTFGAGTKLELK | MFI | 442
TM-3 (antibody, V domains shown) VH: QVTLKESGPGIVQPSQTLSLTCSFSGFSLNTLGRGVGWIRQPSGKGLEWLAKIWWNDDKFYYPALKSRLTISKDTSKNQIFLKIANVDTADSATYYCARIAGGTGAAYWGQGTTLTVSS VL: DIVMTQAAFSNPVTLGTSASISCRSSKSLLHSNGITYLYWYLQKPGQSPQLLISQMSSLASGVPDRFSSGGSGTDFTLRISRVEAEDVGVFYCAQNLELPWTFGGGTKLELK | MFI | 1080
TM-27 (antibody, V domains shown) VH: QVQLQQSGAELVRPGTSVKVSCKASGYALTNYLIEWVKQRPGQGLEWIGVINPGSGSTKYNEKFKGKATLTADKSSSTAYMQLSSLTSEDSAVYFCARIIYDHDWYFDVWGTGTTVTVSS VL: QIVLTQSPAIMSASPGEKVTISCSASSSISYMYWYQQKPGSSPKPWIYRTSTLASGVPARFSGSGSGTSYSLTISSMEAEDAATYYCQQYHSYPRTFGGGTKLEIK | MFI | 1320
TM-19 (antibody, V domains shown) VH: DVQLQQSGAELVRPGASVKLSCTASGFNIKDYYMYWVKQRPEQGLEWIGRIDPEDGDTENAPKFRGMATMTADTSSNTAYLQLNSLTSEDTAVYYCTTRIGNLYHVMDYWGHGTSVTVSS VL: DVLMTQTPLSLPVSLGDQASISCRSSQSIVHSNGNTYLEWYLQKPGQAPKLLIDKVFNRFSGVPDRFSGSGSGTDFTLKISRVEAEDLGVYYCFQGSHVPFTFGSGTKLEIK | MFI | 878
TM-21 (antibody, V domains shown) VH: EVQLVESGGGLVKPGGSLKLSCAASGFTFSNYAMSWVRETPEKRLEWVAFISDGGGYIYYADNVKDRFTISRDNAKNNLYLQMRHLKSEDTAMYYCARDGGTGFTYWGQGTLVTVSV VL: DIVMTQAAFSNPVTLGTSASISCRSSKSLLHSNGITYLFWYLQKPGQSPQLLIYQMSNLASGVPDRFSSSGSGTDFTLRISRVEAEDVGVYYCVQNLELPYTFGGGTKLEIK | MFI | 672
TM-12 (antibody, V domains shown) VH: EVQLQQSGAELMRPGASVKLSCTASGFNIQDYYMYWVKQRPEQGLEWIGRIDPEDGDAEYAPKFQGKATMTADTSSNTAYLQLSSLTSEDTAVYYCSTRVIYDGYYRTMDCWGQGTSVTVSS VL: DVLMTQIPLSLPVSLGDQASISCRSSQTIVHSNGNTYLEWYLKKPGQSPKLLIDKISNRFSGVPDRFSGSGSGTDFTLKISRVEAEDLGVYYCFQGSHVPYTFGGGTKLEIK | MFI | 1330
TM-17 (antibody, V domains shown) VH: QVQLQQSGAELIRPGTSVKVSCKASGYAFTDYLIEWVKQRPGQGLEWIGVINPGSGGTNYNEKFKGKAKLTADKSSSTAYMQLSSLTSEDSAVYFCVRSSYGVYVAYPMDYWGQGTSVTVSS VL: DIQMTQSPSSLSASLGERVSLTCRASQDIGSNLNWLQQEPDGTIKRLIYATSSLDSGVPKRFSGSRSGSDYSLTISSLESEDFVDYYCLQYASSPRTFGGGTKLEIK | MFI | 305
TM-10 (antibody, V domains shown) VH: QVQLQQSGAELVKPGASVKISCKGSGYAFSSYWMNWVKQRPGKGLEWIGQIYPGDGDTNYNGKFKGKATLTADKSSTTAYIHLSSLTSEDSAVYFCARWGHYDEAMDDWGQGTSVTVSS VL: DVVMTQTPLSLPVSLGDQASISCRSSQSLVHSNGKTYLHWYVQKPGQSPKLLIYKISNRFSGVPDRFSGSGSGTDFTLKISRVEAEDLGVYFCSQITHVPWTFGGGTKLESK | MFI | 328
TM-13 (antibody, V domains shown) VH: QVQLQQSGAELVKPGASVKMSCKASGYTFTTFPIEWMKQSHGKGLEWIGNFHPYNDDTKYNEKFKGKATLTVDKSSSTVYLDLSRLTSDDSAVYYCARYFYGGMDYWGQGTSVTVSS VL: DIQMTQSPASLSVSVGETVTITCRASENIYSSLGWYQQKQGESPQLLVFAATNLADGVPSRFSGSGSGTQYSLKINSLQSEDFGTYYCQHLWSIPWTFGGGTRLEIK | MFI | 787
